Listing of entries alongside the reported combination Emax.
Tested on: NCI-H23 (Lung Adenocarcinoma)
assay_method_text: combination Emax (second highest fraction inhibited in the dose matrix, 72 h); higher = more inhibition; extreme values may be limits of the assay
metric_name: combination Emax

{"columns": ["compound", "value"],
 "data": [
  ["Cc1c2c(nn1C)CSCc1cc(n(C)n1)CSc1cc(c3ccccc3c1)OCCCc1c(C(=O)O)n(C)c3c-2c(Cl)ccc13 [AZD5991] + C1CN(CCC1(C(=O)N[C@@H](CCO)C2=CC=C(C=C2)Cl)N)C3=NC=NC4=C3C=CN4 [Capivasertib] (first compound max 1 µM, 7x7, partner max 3 µM)", 0.899],
  ["COc1nnc2ccc(N3CCC(c4ccc(OCCN5CCN(C)C(=O)[C@H]5C)cc4)CC3)nn12 [AZD5153] + C[C@@H]1COCCN1C2=NC(=NC(=C2)C3(CC3)[S@](=N)(=O)C)C4=C5C=CNC5=NC=C4 [AZD6738] (first compound max 1 µM, 7x7, partner max 10 µM)", 1],
  ["CN(C)CCCOc1ccc(-c2ccc3ncc4c(c3c2)n(C2CCOCC2)c(=O)n4C)cn1 [AZD0156] + C[C@@H]1COCCN1C2=NC(=NC(=C2)C3(CC3)[S@](=N)(=O)C)C4=C5C=CNC5=NC=C4 [AZD6738] (first compound max 1 µM, 7x7, partner max 10 µM)", 0.786],
  ["COc1nnc2ccc(N3CCC(c4ccc(OCCN5CCN(C)C(=O)[C@H]5C)cc4)CC3)nn12 [AZD5153] + C=CCn1c(=O)c2cnc(Nc3ccc(N4CCN(C)CC4)cc3)nc2n1-c1cccc(C(C)(C)O)n1 [AZD1775] (first compound max 1 µM, partner max 1 µM)", 0.963]
]}

* * *

System: MFE-280 (Endometrial Carcinoma)
assay_method_text: combination Emax (second highest fraction inhibited in the dose matrix, 72 h); higher = more inhibition; extreme values may be limits of the assay
Listing of entries alongside the reported combination Emax.

{"columns": ["molecule", "combination Emax"],
 "data": [
  ["Cn1cnc2c(F)c(Nc3ccc(Br)cc3Cl)c(C(=O)NOCCO)cc21 [Selumetinib] + C=CCn1c(=O)c2cnc(Nc3ccc(N4CCN(C)CC4)cc3)nc2n1-c1cccc(C(C)(C)O)n1 [AZD1775] (first compound max 10 µM, partner max 1 µM)", 0.212],
  ["Cn1cnc2c(F)c(Nc3ccc(Br)cc3Cl)c(C(=O)NOCCO)cc21 [Selumetinib] + C[C@@H]1COCCN1C2=NC(=NC(=C2)C3(CC3)[S@](=N)(=O)C)C4=C5C=CNC5=NC=C4 [AZD6738] (first compound max 10 µM, 7x7, partner max 10 µM)", 0.151]
]}

* * *

System: REH (B-Lymphoblastic Leukemia)
assay_method_text: Bliss excess, mean over the matrix (fraction); higher = more synergy
Listing of entries alongside the reported Bliss excess.

{"columns": ["compound", "Bliss excess"],
 "data": [
  ["Cc1c2c(nn1C)CSCc1cc(n(C)n1)CSc1cc(c3ccccc3c1)OCCCc1c(C(=O)O)n(C)c3c-2c(Cl)ccc13 [AZD5991] + C=CCn1c(=O)c2cnc(Nc3ccc(N4CCN(C)CC4)cc3)nc2n1-c1cccc(C(C)(C)O)n1 [AZD1775] (first compound max 1 µM, partner max 1 µM)", -0.112],
  ["CN(CCO)CC[C@H](CSc1ccccc1)Nc1ccc(S(=O)(=O)NC(=O)c2ccc(N3CCC([C@@H](O)c4ccccc4-c4ccc(Cl)cc4)CC3)cc2)cc1S(=O)(=O)C(F)(F)F [AZD4320] + C1CN(CCC1(C(=O)N[C@@H](CCO)C2=CC=C(C=C2)Cl)N)C3=NC=NC4=C3C=CN4 [Capivasertib] (first compound max 1 µM, 7x7, partner max 3 µM)", 0.0197]
]}

* * *

Tested on: REH (B-Lymphoblastic Leukemia)
assay_method_text: Bliss excess, mean over the matrix (fraction); higher = more synergy
Listing of entries alongside the reported Bliss excess.

{"columns": ["molecule", "Bliss excess"],
 "data": [
  ["N#Cc1cnc(Nc2cc(NC[C@H]3CNCCO3)c(C(F)(F)F)cn2)cn1 [SRA737] + Nc1ccn([C@@H]2O[C@H](CO)[C@@H](O)C2(F)F)c(=O)n1 [Gemcitabine] (first compound max 10 µM, 7x7, partner max 0.3 µM)", 0.0113],
  ["Cc1nc(-c2cn3c(n2)-c2ccc(-c4cnn(C(C)(C)C(N)=O)c4)cc2OCC3)n(C(C)C)n1 [Taselisib] + O=C(Nc1ccc2[nH]nc(-c3ccncc3)c2c1)[C@@H]1CCN(CC(=O)N2CCN(c3ccc(-c4ncccn4)cc3)CC2)C1 [SCH772984] (first compound max 10 µM, 7x7, partner max 5 µM)", 0.102],
  ["CN(CCO)CC[C@H](CSc1ccccc1)Nc1ccc(S(=O)(=O)NC(=O)c2ccc(N3CCC([C@@H](O)c4ccccc4-c4ccc(Cl)cc4)CC3)cc2)cc1S(=O)(=O)C(F)(F)F [AZD4320] + CN(C)CCCOc1ccc(-c2ccc3ncc4c(c3c2)n(C2CCOCC2)c(=O)n4C)cn1 [AZD0156] (first compound max 1 µM, 7x7, partner max 1 µM)", 0.0092]
]}

* * *

Test system: RKN (Other Solid Carcinomas)
assay_method_text: Bliss excess, mean over the matrix (fraction); higher = more synergy
Rule: Bliss excess of -0.01 or more gives Fulfilled; anything lower gives Not fulfilled.

{"columns": ["molecule", "cat"],
 "data": [
  ["N#Cc1cnc(Nc2cc(NC[C@H]3CNCCO3)c(C(F)(F)F)cn2)cn1 [SRA737] + Nc1ccn([C@@H]2O[C@H](CO)[C@@H](O)C2(F)F)c(=O)n1 [Gemcitabine] (first compound max 10 µM, 7x7, partner max 0.3 µM)", "Fulfilled"],
  ["CC1(C)CCC(CN2CCN(c3ccc(C(=O)NS(=O)(=O)c4ccc(NCC5CCOCC5)c([N+](=O)[O-])c4)c(Oc4cnc5[nH]ccc5c4)c3)CC2)=C(c2ccc(Cl)cc2)C1 [Venetoclax] + CCN(CCO)CCCOc1ccc2c(Nc3cc(CC(=O)Nc4cccc(F)c4)[nH]n3)ncnc2c1 [AZD2811] (first compound max 1 µM, 7x7, partner max 1 µM)", "Not fulfilled"],
  ["CN(CCO)CC[C@H](CSc1ccccc1)Nc1ccc(S(=O)(=O)NC(=O)c2ccc(N3CCC([C@@H](O)c4ccccc4-c4ccc(Cl)cc4)CC3)cc2)cc1S(=O)(=O)C(F)(F)F [AZD4320] + CN(C)CCCOc1ccc(-c2ccc3ncc4c(c3c2)n(C2CCOCC2)c(=O)n4C)cn1 [AZD0156] (first compound max 1 µM, 7x7, partner max 1 µM)", "Not fulfilled"],
  ["CC1(C)CCC(CN2CCN(c3ccc(C(=O)NS(=O)(=O)c4ccc(NCC5CCOCC5)c([N+](=O)[O-])c4)c(Oc4cnc5[nH]ccc5c4)c3)CC2)=C(c2ccc(Cl)cc2)C1 [Venetoclax] + COc1cc(Nc2ncc3c(n2)-c2ccc(Cl)cc2C(c2c(F)cccc2OC)=NC3)ccc1C(=O)O [Alisertib] (first compound max 1 µM, 7x7, partner max 10 µM)", "Not fulfilled"],
  ["Cc1c2c(nn1C)CSCc1cc(n(C)n1)CSc1cc(c3ccccc3c1)OCCCc1c(C(=O)O)n(C)c3c-2c(Cl)ccc13 [AZD5991] + CS(=O)(=O)CCNCc1ccc(-c2ccc3ncnc(Nc4ccc(OCc5cccc(F)c5)c(Cl)c4)c3c2)o1 [Lapatinib] (first compound max 1 µM, 7x7, partner max 10 µM)", "Not fulfilled"],
  ["C[C@@H](Oc1cc(-c2cnn(C3CCNCC3)c2)cnc1N)c1c(Cl)ccc(F)c1Cl [Crizotinib] + CC1=C(C(=CC=C1)Cl)NC(=O)C2=CN=C(S2)NC3=CC(=NC(=N3)C)N4CCN(CC4)CCO [Dasatinib] (first compound max 10 µM, 7x7, partner max 2 µM)", "Fulfilled"]
]}

* * *

Test system: SU-DHL-10 (B-Cell Non-Hodgkin's Lymphoma)
assay_method_text: combination Emax (second highest fraction inhibited in the dose matrix, 72 h); higher = more inhibition; extreme values may be limits of the assay
metric_name: combination Emax

{"columns": ["molecule", "target_or_system", "value"],
 "data": [
  ["COc1nnc2ccc(N3CCC(c4ccc(OCCN5CCN(C)C(=O)[C@H]5C)cc4)CC3)nn12 [AZD5153] + C=CCn1c(=O)c2cnc(Nc3ccc(N4CCN(C)CC4)cc3)nc2n1-c1cccc(C(C)(C)O)n1 [AZD1775] (first compound max 1 µM, partner max 1 µM)", "SU-DHL-10 (B-Cell Non-Hodgkin's Lymphoma)", 1],
  ["Cc1cc2ncnn2cc1Nc1ncc2c(n1)n(C1CCOCC1)c(=O)n2C [AZD7648] + CCN(CCO)CCCOc1ccc2c(Nc3cc(CC(=O)Nc4cccc(F)c4)[nH]n3)ncnc2c1 [AZD2811] (first compound max 10 µM, 7x7, partner max 1 µM)", "SU-DHL-10 (B-Cell Non-Hodgkin's Lymphoma)", 0.899],
  ["Cc1c2c(nn1C)CSCc1cc(n(C)n1)CSc1cc(c3ccccc3c1)OCCCc1c(C(=O)O)n(C)c3c-2c(Cl)ccc13 [AZD5991] + C1CN(CCC1(C(=O)N[C@@H](CCO)C2=CC=C(C=C2)Cl)N)C3=NC=NC4=C3C=CN4 [Capivasertib] (first compound max 1 µM, 7x7, partner max 3 µM)", "SU-DHL-10 (B-Cell Non-Hodgkin's Lymphoma)", 1],
  ["COc1cccc(OCCCN)c1-c1cc(Nc2cnc(C#N)cn2)n[nH]1 [Prexasertib] + O=C(c1cc(Cc2n[nH]c(=O)c3ccccc23)ccc1F)N1CCN(C(=O)C2CC2)CC1 [Olaparib] (first compound max 1 µM, 7x7, partner max 10 µM)", "SU-DHL-10 (B-Cell Non-Hodgkin's Lymphoma)", 1]
]}
